- assayed system: Adrenergic receptor alpha-2 (Rattus norvegicus, UniProt P22086+P19328+P22909)
- Sequence (P22086 whole entry): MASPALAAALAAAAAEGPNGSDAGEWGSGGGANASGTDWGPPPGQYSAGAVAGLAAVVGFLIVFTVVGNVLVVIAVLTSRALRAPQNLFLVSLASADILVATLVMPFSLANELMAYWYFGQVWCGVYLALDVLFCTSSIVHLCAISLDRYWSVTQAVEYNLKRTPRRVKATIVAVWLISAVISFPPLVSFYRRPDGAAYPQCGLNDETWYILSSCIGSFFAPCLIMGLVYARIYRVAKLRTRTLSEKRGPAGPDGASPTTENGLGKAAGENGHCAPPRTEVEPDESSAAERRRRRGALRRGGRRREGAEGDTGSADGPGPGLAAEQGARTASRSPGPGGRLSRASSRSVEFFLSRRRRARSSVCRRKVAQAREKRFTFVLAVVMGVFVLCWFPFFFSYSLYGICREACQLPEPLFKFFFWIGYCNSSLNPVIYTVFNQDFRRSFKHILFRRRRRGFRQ
- Sequence (P19328 whole entry): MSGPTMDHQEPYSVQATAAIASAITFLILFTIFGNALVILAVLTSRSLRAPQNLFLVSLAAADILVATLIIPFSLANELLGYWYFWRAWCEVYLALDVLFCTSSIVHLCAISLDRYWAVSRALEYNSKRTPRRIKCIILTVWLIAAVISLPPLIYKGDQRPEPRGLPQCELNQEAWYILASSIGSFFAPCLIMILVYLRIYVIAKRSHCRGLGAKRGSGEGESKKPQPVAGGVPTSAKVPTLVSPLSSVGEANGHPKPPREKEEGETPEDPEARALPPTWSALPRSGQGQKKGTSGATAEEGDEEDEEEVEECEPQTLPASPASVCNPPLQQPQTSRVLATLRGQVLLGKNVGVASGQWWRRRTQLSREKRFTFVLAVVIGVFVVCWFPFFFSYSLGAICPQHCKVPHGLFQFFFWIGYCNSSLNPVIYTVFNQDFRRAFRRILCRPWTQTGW
- Sequence (P22909 whole entry): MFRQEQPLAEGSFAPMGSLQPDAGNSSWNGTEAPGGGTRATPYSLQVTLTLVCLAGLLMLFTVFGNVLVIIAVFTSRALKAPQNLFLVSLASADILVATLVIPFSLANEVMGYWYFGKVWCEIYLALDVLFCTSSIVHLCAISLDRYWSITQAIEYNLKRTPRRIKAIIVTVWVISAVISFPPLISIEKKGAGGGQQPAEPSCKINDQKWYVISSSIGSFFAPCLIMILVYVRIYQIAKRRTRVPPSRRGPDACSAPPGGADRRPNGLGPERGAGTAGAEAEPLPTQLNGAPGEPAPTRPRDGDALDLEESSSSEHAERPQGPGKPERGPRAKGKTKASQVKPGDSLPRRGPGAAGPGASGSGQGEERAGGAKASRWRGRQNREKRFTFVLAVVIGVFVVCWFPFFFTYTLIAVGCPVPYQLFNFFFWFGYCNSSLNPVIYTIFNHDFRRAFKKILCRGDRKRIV
- assay notes: Binding affinity towards alpha-2 adrenergic receptor
- Assay type: protein assay
measured attribute: Ki (nM)
Your answer is read as nM, so omit the unit and give the number.

Below, each entry is followed by its recorded Ki result.
Clc1ccc([C@@H]2CN3CCC[C@@H]3c3ccccc32)cc1Cl: 990
c1ccc([C@@H]2CN3CCC[C@@H]3c3ccccc32)cc1 (stereo in doubt; 7b): 750
CN(C)CCCN1c2ccccc2CCc2ccc(Cl)cc21 [CLOMIPRAMINE]: 51

Ki lookup needed for CN(C)CCCN1c2ccccc2CCc2ccccc21 [IMIPRAMINE] , thanks.
4900

----------
- assayed system: Sodium-dependent dopamine transporter (Rattus norvegicus, UniProt P23977)
- Sequence (P23977 whole entry): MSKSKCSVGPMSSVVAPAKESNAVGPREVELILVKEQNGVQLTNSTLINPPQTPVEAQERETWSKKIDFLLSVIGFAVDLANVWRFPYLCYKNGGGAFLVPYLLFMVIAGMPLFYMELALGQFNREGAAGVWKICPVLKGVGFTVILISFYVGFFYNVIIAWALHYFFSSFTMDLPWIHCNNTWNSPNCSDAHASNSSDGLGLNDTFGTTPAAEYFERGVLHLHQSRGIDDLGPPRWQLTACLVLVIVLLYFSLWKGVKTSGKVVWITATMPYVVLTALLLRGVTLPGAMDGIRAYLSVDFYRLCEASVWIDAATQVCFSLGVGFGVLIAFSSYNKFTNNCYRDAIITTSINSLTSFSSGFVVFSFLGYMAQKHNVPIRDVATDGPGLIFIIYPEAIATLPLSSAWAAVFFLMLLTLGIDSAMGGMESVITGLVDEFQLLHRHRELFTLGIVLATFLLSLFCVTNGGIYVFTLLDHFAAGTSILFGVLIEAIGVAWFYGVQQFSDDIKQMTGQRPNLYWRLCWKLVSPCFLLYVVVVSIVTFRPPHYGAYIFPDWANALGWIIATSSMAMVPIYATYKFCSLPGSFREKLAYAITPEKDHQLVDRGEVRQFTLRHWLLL
- assay notes: Inhibition of the uptake of tritiated dopamine (DA) in rat synaptosomes
- Format: subcellular, Brain
measured attribute: Ki (nM)
Please give a number only; it is taken to be in nM.

Some entries whose results are on file:
Clc1ccc([C@@H]2CN3CCC[C@@H]3c3ccccc32)cc1Cl: 0.99
FC(F)(F)c1cccc([C@@H]2CN3CCCC3c3cc(Cl)ccc32)c1 (stereo not given in full): 168
C[C@@]12CCCN1C[C@H](c1ccccc1)c1ccccc12: 40
FC(F)(F)c1cccc([C@@H]2CN3CCC[C@@H]3c3ccccc32)c1 (stereo in doubt; (-)-37b): 7690
O[C@]1(c2ccccc2)CN2CCC[C@H]2c2ccccc21: 28.5
FC(F)(F)c1ccc2c(c1)[C@H]1CCCN1C[C@H]2c1ccccc1: 11.2
CCCCc1ccc([C@@H]2CN3CCC[C@@H]3c3ccccc32)cc1: 230
O=C(Nc1ccccc1)Nc1ccc([C@@H]2CN3CCC[C@H]3c3ccccc32)cc1: 9.8

Next compound, Ki to be filled in.
# get_value(readout='Ki', item= Br.c1csc([C@H]2CN3CCC[C@H]3c3ccsc32)c1 )
39.8

----------
- assayed system: Adrenergic receptor alpha-1 (Rattus norvegicus, UniProt P15823+P23944+P43140)
- assay notes: Binding affinity towards alpha-1 adrenergic receptor
- Type: protein assay
The label T is reserved for Ki strictly under 300 nM; F covers values equal to or above it.

Observe how each entry below is paired with its result.
FC(F)(F)c1cccc([C@@H]2CN3CCC[C@@H]3c3ccccc32)c1 (stereo in doubt; 37b): T
Br.Oc1cc2c(cc1O)[C@H]1CCCN1C[C@H]2c1ccccc1: T
FC(F)(F)c1cccc([C@@H]2CN3CCC[C@@H]3c3ccccc32)c1 (stereo in doubt; (-)-37b): T
CSc1ccc([C@@H]2CN3CCC[C@@H]3c3ccccc32)cc1 (stereo in doubt; (-)-48b): T
c1ccc([C@@H]2CN3CCC[C@@H]3c3ccccc32)cc1 (stereo in doubt; (-)-7b): T
CSc1ccc([C@@H]2CN3CCC[C@@H]3c3ccccc32)cc1 (stereo in doubt; 48b): F

Alright, here's another compound for you.
Is the reported Ki for Br.Clc1ccccc1[C@@H]1CN2CCC[C@@H]2c2ccccc21 (stereo in doubt; (-)-24b) strictly below 300 nM?
F

----------
- Organism: Rattus norvegicus
- assay notes: Ability to inhibit the uptake of tritiated dopamine (DA) 0.1 uM concentration
- Assay type: functional
measured attribute: pKi
pKi (log units): -log10 of the concentration in mol/L.

Need pKi of c1ccc([C@@H]2CN3CCCC[C@H]3c3ccccc32)cc1 , thanks.
6.00

----------
- assayed system: Serotonin 1 (5-HT1) receptor (Rattus norvegicus) (UniProt P28564+P30940+P19327+P28565)
- assay notes: Binding affinity towards serotonin S1 receptor at 1.0 uM
- Format: protein assay
# key: entry, value: inhibition
# do not omit the unit; it follows the number

COc1ccc2c(c1)CN(C)CC2c1ccc(Cl)c(Cl)c1 (stereo not given): 33%
Br.Fc1ccc([C@@H]2CN3CCC[C@@H]3c3cc(F)ccc32)cc1: -6%
Clc1ccc([C@@H]2CN3CCC[C@@H]3c3cc(Cl)ccc32)cc1: 11%

Recorded inhibition for O=C(CCCN1CCC(O)(c2ccc(Cl)cc2)CC1)c1ccc(F)cc1 , please?
58%

Also COc1ccccc1[C@@H]1CN2CCC[C@@H]2c2ccccc21 , if possible.
45%

Let us now turn to CNCCC(Oc1ccc(C(F)(F)F)cc1)c1ccccc1 (stereo not given)
13%

Also, FC(F)(F)c1cccc([C@@H]2CN3CCC[C@@H]3c3ccccc32)c1 (stereo in doubt; (-)-37b) please.
58%

Let us now turn to Br.COc1cc([C@@H]2CN3CCC[C@@H]3c3ccccc32)cc(OC)c1OC
31%

Continue with CN1CCc2cc(Cl)c(O)cc2[C@@H](c2ccccc2)C1
75%

Then this molecule: CN(C)CCCN1c2ccccc2CCc2ccccc21
15%

----------
- assayed system: D(2) dopamine receptor (Rattus norvegicus)
- Sequence (P61169 whole entry): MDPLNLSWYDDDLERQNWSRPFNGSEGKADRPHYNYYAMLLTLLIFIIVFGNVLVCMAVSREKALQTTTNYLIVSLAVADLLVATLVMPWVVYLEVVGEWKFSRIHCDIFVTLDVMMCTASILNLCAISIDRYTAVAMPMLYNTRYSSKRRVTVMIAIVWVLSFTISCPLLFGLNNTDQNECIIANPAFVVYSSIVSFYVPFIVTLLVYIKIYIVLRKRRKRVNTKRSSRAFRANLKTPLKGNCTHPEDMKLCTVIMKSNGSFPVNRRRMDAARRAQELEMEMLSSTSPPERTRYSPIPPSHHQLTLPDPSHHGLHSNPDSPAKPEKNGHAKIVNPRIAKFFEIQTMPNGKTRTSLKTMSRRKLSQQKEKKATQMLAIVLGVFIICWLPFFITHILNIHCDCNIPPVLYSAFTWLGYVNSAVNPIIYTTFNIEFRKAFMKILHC
- assay notes: Binding affinity towards Dopamine receptor D2
Ki vs 400 nM: less than gives met; not less than gives not met.

Record excerpt, results attached:
FC(F)(F)c1cccc([C@@H]2CN3CCC[C@@H]3c3ccccc32)c1 (stereo in doubt; 37b): not met
CN(C)CCCN1c2ccccc2CCc2ccc(Cl)cc21 [CLOMIPRAMINE]: met
Br.Fc1ccc([C@@H]2CN3CCC[C@@H]3c3cc(F)ccc32)cc1: met

Record CSc1ccc([C@@H]2CN3CCC[C@@H]3c3ccccc32)cc1 (stereo in doubt; (+)-48b) : is its Ki strictly below 400 nM?
not met

// query: Br.Clc1ccccc1[C@@H]1CN2CCC[C@@H]2c2ccccc21 (stereo in doubt; 24b)
not met

Subsequent entry: c1ccc([C@@H]2CN3CCC[C@@H]3c3ccccc32)cc1 (stereo in doubt; 7b)
not met

----------
- assayed system: Sodium-dependent dopamine transporter (Rattus norvegicus) (UniProt P23977)
- assay notes: Ability to inhibit the uptake of [3H]dopamine (DA) 0.1 uM concentration at rat brain synaptosomes
- Format: functional, subcellular
Reported inhibition values are given for each entry in this list.
Report the value in % with no unit label.

# example entries with known answers
O=C(O)c1ccccc1[C@@H]1CN2CCC[C@@H]2c2ccccc21: 3
N#Cc1ccccc1[C@@H]1CN2CCC[C@@H]2c2ccccc21: 33
FC(F)(F)c1cccc([C@@H]2CN3CCC[C@H]3c3cccc(Cl)c32)c1: 4
O=[N+]([O-])c1ccc([C@@H]2CN3CCC[C@H]3c3ccccc32)cc1: 21

Entry Br.Nc1ccc([C@@H]2CN3CCC[C@H]3c3ccccc32)cc1 has what inhibition?
77

And Br.c1ccc([C@@H]2Cc3ccccc3[C@@H]3CCCN23)cc1 ?
0

// next record C[C@H]1[C@@H](c2ccccc2)c2ccccc2[C@@H]2CCCN21
3

Please do the same for Br.F[C@]1(c2ccccc2)CN2CCC[C@H]2c2ccccc21 as well.
26

Do the same for c1ccc(C[C@H]2CN3CCC[C@H]3c3ccccc32)cc1 please
19
